Sourced from ChEMBL document CHEMBL1961873

Target: Phosphatidylinositol 4,5-bisphosphate 3-kinase catalytic subunit delta isoform (Homo sapiens) (UniProt O00329);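 also: reported values are mean percent inhibition of PI3K-delta activity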
Sequence (whole entry): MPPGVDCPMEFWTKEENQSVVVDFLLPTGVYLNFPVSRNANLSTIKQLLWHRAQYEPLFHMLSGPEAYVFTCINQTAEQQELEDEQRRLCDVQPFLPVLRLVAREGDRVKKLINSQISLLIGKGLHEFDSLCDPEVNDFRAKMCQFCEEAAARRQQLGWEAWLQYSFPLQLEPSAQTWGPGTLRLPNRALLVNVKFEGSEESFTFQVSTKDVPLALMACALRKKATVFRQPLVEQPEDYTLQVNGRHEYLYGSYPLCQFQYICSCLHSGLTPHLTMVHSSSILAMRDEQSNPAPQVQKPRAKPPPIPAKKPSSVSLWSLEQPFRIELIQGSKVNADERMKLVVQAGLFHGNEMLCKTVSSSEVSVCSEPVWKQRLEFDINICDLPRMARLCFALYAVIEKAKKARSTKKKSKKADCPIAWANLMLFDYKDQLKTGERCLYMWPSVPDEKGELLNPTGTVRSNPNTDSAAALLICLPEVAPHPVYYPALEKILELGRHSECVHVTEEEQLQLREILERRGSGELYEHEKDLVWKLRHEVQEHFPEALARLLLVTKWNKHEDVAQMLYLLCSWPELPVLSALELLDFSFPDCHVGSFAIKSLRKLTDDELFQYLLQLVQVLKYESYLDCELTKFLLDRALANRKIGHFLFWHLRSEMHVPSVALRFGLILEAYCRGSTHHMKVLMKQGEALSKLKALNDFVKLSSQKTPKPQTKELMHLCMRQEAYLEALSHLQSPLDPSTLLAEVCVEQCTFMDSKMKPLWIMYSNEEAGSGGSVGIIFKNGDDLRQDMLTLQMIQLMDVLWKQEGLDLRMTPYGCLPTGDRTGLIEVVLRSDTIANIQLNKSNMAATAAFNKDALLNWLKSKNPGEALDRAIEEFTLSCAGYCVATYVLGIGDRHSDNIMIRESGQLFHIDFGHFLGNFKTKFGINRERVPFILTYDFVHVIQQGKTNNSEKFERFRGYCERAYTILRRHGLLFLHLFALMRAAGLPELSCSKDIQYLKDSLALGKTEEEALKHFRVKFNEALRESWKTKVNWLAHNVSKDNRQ
Settings: at 1 µM
inhibition for assorted compounds

- compound: "CN(C)CCCn1c(-c2nonc2N)nc2cnccc21"
  inhibition / %: 4.09
- compound: "Cc1ccc2c(-c3ccnc(Nc4cccc(C(F)(F)F)c4)n3)c(-c3ccccc3)nn2n1"
  inhibition / %: 2
- compound: "CC(C)c1ccc(Nc2nccc(-c3cnn4ncccc34)n2)cc1"
  inhibition / %: 6.78
- compound: "Cc1cc(Cl)cc2c1NC(=O)C2=NNc1ccc(S(N)(=O)=O)cc1"
  inhibition / %: 4.67
- compound: "CCS(=O)(=O)c1ccc(OC)c(Nc2nccc(N(C)c3ccc4c(C)n[nH]c4c3)n2)c1"
  inhibition / %: 2.75
- compound: "CCCN1CCCC(c2ccc(Nc3nc(Nc4cc(F)ccc4C(N)=O)c4cc[nH]c4n3)c(OC)c2)C1 (stereo not drawn)"
  inhibition / %: 9.74
- compound: "Cc1ccc(O)cc1Nc1ccnc2ccc(S(C)(=O)=O)cc12"
  inhibition / %: 50.7
- compound: "COc1cccc(-n2ncc3c(N/N=C/c4ccc(C)cc4)ncnc32)c1"
  inhibition / %: 5.9
